Entry source: patent US8193203B2

molecular target: human CXCR4 receptor (Homo sapiens, UniProt P61073); construct: expressed in transfected cells; test: Measurement of intracellular Ca+2 responses (FLIPR), antagonism of the SDF-1α response; format: cell-based; settings: HEK-Gqi5 cells stably expressing human CXCR4; Fluo-4 FLIPR; antagonism of SDF-1α 1.9 nM (EC65); values in nM
Sequence (P61073 whole entry): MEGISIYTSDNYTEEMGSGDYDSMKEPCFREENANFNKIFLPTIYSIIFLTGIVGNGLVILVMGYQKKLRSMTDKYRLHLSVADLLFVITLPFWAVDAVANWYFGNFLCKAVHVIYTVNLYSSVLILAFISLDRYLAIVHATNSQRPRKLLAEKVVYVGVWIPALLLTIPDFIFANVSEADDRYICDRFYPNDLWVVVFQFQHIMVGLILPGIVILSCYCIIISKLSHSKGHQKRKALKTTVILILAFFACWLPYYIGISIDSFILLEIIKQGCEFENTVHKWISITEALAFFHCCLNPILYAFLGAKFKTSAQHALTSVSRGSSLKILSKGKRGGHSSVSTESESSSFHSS
Below, each entry is listed with its recorded IC50.
Give a bare numeral; the unit nM is implied.

Worked set:
1) COc1cccc(N(C)C)c1CN1CCC(Nc2nc(NC3CCN(C)CC3)nc3ccccc23)CC1 [Compound 94]
790
2) CCN(CC)CCCNc1nc(NC2CCN(Cc3ccccc3N(C)C)CC2)c2ccccc2n1 [Compound 35]
330
3) COc1cc2nc(NCCN)nc(NC3CCN(Cc4c(OCCN(C)C)cccc4N(C)C)CC3)c2cc1OC [Compound 180]
116

From here, focus on the item given below.
Lab note: COc1cc2nc(NCCCN(C)C)nc(NC3CCN(Cc4c(OC)cccc4N(C)C)CC3)c2cc1OC [Compound 78] gave IC50 of 283
